test system: PRMT1 (protein arginine N-methyltransferase 1); assay: PRMT1 binders on small-molecule microarrays, primary screen, biochemical, small-molecule microarray, 635 nm fluorescence (AID 1088); settings: small-molecule microarray binding, higher = more signal;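 further: binding of Prmt1 protein to compounds spotted on small-molecule microarray slides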
# composite z-score per entry
Keep the answer to the number alone.

• COC(=O)[C@@H]1CC[C@H](C)[C@@H](c2ccc(C)cc2)N1C(=O)c1ccc(C=NOC[C@@H](O)[C@H]2O[C@@H]3OC(C)(C)O[C@@H]3[C@H]2O)cc1 = 0.886
• CC(C)=CCCC(C)=CCON=C1C[C@@H](O)[C@@H](O)[C@@H]2[C@@H]3C(=O)N(Cc4ccc5c(c4)OCO5)C(=O)[C@@H]3CC[C@@H]12 = 1.54
• COCOc1ccc(Br)cc1C(=O)C=Cc1ccc2c(c1)OCO2 = 0.253
• CC(CCN1CCCc2nc(C)c(C)cc21)=NO[C@@H](C)c1cn([C@H](CO)Cc2ccccc2)nn1 = 0.279
• CCOC(=O)[C@H](CC(C)C)NC(=O)CCC1CC(OC(=O)NCc2ccc3c(c2)OCO3)CC2(CCCC(COC(=O)NCCC(C)C)O2)O1 (stereo not given in full) = 0.145

The reported value for `COc1cccc([C@H]2Oc3ccc(OC)cc3C(=NOCC[C@@H]3C=C[C@H](OC(C)=O)[C@@H](COC(C)=O)O3)[C@@H]2O)c1` in terms of composite z-score is 0.829

What the record says about COC(=O)CC=C[C@@H](C)[C@@H](C=NOC(C)CN1CCCc2nc(C)c(C)cc21)NS(=O)(=O)c1ccc(C)cc1 (stereo not given in full) : composite z-score is 1.3

Reported composite z-score ( `CC(C)[C@@H](OCc1ccccc1)[C@H](C)C=NOC[C@@H](O)[C@H]1O[C@@H]2OC(C)(C)O[C@@H]2[C@H]1O` ) = 0.763

Notebook: `CCN1C(=O)[C@H]2[C@H]3[C@H](O)[C@H](O)CC(=NO[C@@H]4O[C@H](CO)[C@@H](O)[C@H](O)[C@H]4O)[C@H]3CC[C@H]2C1=O` , composite z-score read as -0.26

According to the records, this molecule `CC(CCN1CCCCc2nc(C)c(C)cc21)=NO[C@H](C)c1cn([C@@H]2COC[C@H]2O)nn1` displays composite z-score of 1.19

The recorded composite z-score for COC(=O)[C@H](C)NC(=O)CCC1CC(OC(=O)NCc2cccc3ccccc23)CC2(CCCC(COC(=O)NCCOc3ccccc3)O2)O1 (stereo not given in full) is 1.53

For `O=C1[C@H]2[C@H]3[C@H](O)[C@H](O)CC(=NOCc4ccccc4)[C@H]3CC[C@H]2C(=O)N1C1CCCCC1` the molecule record lists composite z-score as 0.542

Reported composite z-score ( `O=C1C[C@@H](O)[C@@H](O)[C@@H]2[C@@H]3C(=O)N(c4ccc(F)cc4F)C(=O)[C@@H]3CC[C@H]12` ) = 0.599

composite z-score reading for COC(=O)[C@H](C)NC(=O)CCC1CC(OC(=O)NCc2ccc3c(c2)OCO3)CC2(CCCC(COC(=O)NCCC(C)C)O2)O1 (stereo not given in full) : 1.55

The recorded composite z-score for `COC(=O)[C@@H]1CC[C@H](C)[C@@H](c2ccc(Br)cc2)N1C[C@@H](O)CN=[N+]=[N-]` is 0.382

* * *

test: FRG1 promoter luciferase signal modulators, primary screen, FRG1 inhibition for FSHD, cell-based, C2C12 myotubes, firefly/Renilla luciferase, luminescence (AID 1084); conditions: higher = more signal, called active from +8 up or from −8 down
Calls of active or inactive are those of the source.
Item-by-item account of z-score

- CCOC(=O)[C@H](Cc1ccccc1)NC(=O)CCC1CC(OC(=O)NCCc2ccc(F)cc2)CC2(CCCC(COC(=O)NCc3cccc(C(F)(F)F)c3)O2)O1 (some centres not stated): -0.342 (inactive)
- COc1ccc(O[C@H]2C=C[C@@H](c3ccccc3)O[C@@H]2CON=C2c3cc(OC)ccc3O[C@H](c3cccc(OC)c3)[C@H]2O)cc1: 1.82 (inactive)
- CO[C@@H](C(C)C)[C@@H](C)C1OC(=O)CC1O (some centres not stated): 0.35 (inactive)
- C=CC[C@@H]1C=C[C@H](Oc2ccc(C)cc2)[C@@H](COC(=O)NCc2cccc3ccccc23)O1: -0.446 (inactive)
- COC(=O)CC=C[C@@H](C)[C@@H](C=NOC(C)CN1CCCCc2nc(C)c(C)cc21)NS(=O)(=O)c1ccc(C)cc1 (some centres not stated): 0.511 (inactive)
- COC(=O)[C@H](C)NC(=O)CC=C[C@@H](C)[C@@H]1C=C[C@H](O)[C@@H](CO)O1: 0.439 (inactive)

Noted for `CO[C@H]1COC(=O)[C@H](CCSC)NC(=O)CC=C[C@@H](C)[C@H](OC)COC(=O)[C@@H](OCc2ccccc2)C=C[C@@H]1C` : its z-score reads 0.306 (inactive)

* * *

test system: XIP peptide (Xip251-270) binding; assay: small-molecule binders of XIP peptide, primary screen, biochemical, small-molecule microarray, fluorescence 635/667 nm, 0.1 µg/mL protein (AID 1182); conditions: fluorescent protein binding, 635 nm, higher = more signal, called active from +8 up or from −8 down
Hi, to clarify the labels: 1 covers composite z-score from -0.02 upward, 0 covers anything below -0.02.

* CC(C)=CCCC(C)=CCON=C1C[C@@H](O)[C@@H](O)[C@@H]2[C@@H]3C(=O)N(Cc4ccc5c(c4)OCO5)C(=O)[C@@H]3CC[C@H]12 | 1
* COCC#Cc1ccc([C@@H]2N[C@H](C(=O)O)CC[C@H]2C)cc1 | 0

Query :: Kindly determine if composite z-score recorded for `O=C1C=C[C@@H](O)[C@@H]2[C@@H]3C(=O)N(C4CCCCC4)C(=O)[C@@H]3CC[C@@H]12` is above or exactly -0.02.
Result :: 1

Query :: Quick check: does `CO[C@H]1COC(=O)CCC[C@H](C)[C@@H](OC)COC(=O)CC=C[C@@H]1C` have composite z-score greater than or equal to -0.02?
Result :: 0

Query :: Please indicate if the recorded composite z-score for `CC(CCC(=O)OC[C@H]1O[C@H](C#Cc2ccccc2)C=C[C@@H]1Oc1ccc(C)cc1)=NO[C@@H](C)c1cc(-c2c(C)cc(C)cc2C)no1` meets or exceeds -0.02.
Result :: 1

Query :: Dear colleague, could you confirm whether CC(C)=NOC(C)CN1CCCCc2nc(C)c(C)cc21 (stereo not drawn) has composite z-score at or above -0.02?
Result :: 0

Query :: Please check the record CCOC(=O)[C@H](CC(C)C)NC(=O)CCC1CC(OC(=O)NCCc2ccc(F)cc2)CC2(CCCC(COC(=O)NCCCN3CCCC3=O)O2)O1 (stereo partly drawn) and state if its composite z-score is at or above -0.02.
Result :: 1

* * *

test: basal MM1S mitochondrial membrane potential changes, profiling panel, cell-based, JC-1 fluorescence, 24 h, 100 nL compound (AID 1170); details: higher = more signal
ASSAY_READOUT: z-score
Keep the answer to the number alone.

• COc1ccc(COC(=O)NN=C2C[C@@H](O)[C@@H](O)[C@@H]3[C@@H]4C(=O)N(Cc5ccccc5)C(=O)[C@@H]4CC[C@@H]23)cc1 = -1.46

Entry `CC(=O)OC[C@H]1O[C@@H](ON=C(C)C)[C@H](OC(C)=O)[C@@H](OC(C)=O)[C@@H]1OC(C)=O` — recorded z-score = 0.35

Item: `CC(CCN1CCCc2nc(C)c(C)cc21)=NO[C@@H](C)c1cn([C@H](CO)Cc2ccccc2)nn1` | z-score: -0.762

Notebook: `CO[C@@H]1COC(=O)CC=C[C@H](C)[C@H](OC)COC(=O)[C@@H]2CCCN2C(=O)CC=C[C@H]1C` , z-score read as 1.03

* * *

Examples of compounds with documented z-score follow.
test: basal 3T3-L1 adipocyte mitochondrial potential changes, profiling panel, cell-based, JC-1 fluorescence, 3T3-L1 adipocytes, 24 h, 100 nL compound (AID 1168); settings: JC-1 mitochondrial fluorescence, higher = more signal, called active from +8 up or from −8 down
Provide a numeric answer; units are not to be included.

Example cases with answers are listed next.
• CCOC(=O)[C@H](CC(C)C)NC(=O)CCC1CC(OC(=O)NCCc2ccc(F)cc2)CC2(CCCC(COC(=O)NCCCN3CCCC3=O)O2)O1 (stereo partly specified) = -0.139
• O=C1[C@H]2[C@H]3[C@H](O)[C@H](O)CC(=NOCc4ccccc4)[C@H]3CC[C@H]2C(=O)N1C1CCCCC1 = 0.028
• C#CCCCON=C1C[C@@H](O)[C@@H](O)[C@@H]2[C@@H]3C(=O)N(CC)C(=O)[C@@H]3CC[C@H]12 = -0.625
• COc1ccc(COC(=O)NN=C2C[C@@H](O)[C@@H](O)[C@@H]3[C@@H]4C(=O)N(C[C@@H]5CCCO5)C(=O)[C@@H]4CC[C@@H]23)cc1 = 0.658

Entry under test: CCCCOC(OCCCC)C(O)CSc1ccc2ccccc2c1 (stereo unspecified) . Its z-score was -0.239

// `O=C1[C@H]2[C@H]3[C@H](O)[C@H](O)CC(=NOCc4ccccc4)[C@@H]3CC[C@H]2C(=O)N1c1cccc(Oc2ccccc2)c1` : z-score value = -0.145

For `Cc1ccc(C(C)C)n1C(=O)OC(C)(C)C` the compound record lists z-score as 0.499

C[C@H]1CC[C@H]2C(=O)OC(COc3ccc(C(C)(C)C)cc3)CN2[C@@H]1c1ccc(Br)cc1 (stereo partly specified) has a reported z-score of -0.414

# z-score of CCN(CC)CC(O)CN1CCCCc2nc(C)c(C)cc21 (stereo unspecified) = 0.109

Origin of measurements: PubChem BioAssay
